assayed.target: c-Src SH2;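 also: peptide library displayed on the E. coli surface as eCPX fusions, selected cells deep-sequenced, score is each peptide's frequency after selection divided by its frequency in the input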
assay.summary: SH2 binding enrichment of the phosphorylated peptide, bacterial display (enrichment ratio); higher = better substrate or ligand; peptides without Tyr show the background
measured.quantity: SH2 binding enrichment

Below are worked cases with known answers.
INPUT: Which SH2 binding enrichment is reported for this sequence? FQGRRYDCDCD [CRYGS_Y21]
OUTPUT: 0.571

INPUT: Next sequence: NAGAFYALSTL [FLVCR2_Y325]
OUTPUT: 0.592

INPUT: Next sequence: SVIVPYEPPEV [TP53_Y220_V217I]
OUTPUT: 1.28

(I) GFVEDYRPPFF [ACVRL1_Y421_I417F_YF]
(II) ENGPYYTSYPP [GDAP2_Y488]
INPUT: Lower value for measured SH2 binding enrichment? Options: I , II When you have decided, please share the label of that item.
OUTPUT: I

(P) KHMADYPDFKF [SOX11_Y113_YF]
(Q) SHNKYYMLVAR [MFSD8_Y134]
(R) SRIWVYNHYRW [BRCA2_Y2621]
(S) QFNMQYSSSAA [ERBB2IP_Y981_I979M_YF]
(T) TMKSHYMELYD [BBS2_Y644_R643H]
INPUT: Order the records so the highest SH2 binding enrichment appears first and the lowest last. Answer by listing the labels in the requested order.
OUTPUT: T, Q, R, S, P
